System: Jag1-Notch1 signalling
Test name: Co-culture Notch luciferase reporter assay, Jag1-induced
Format: cell-based, human
Experimental conditions: peptides 25 μM
Residues, ends and D or L forms follow the SMILES beside them.
Recorded metric: inhibition of Jag1-induced Notch signaling compared with N1

CC[C@H](C)[C@H](NC(=O)[C@H](CCC(N)=O)NC(=O)[C@H](CC(=O)O)NC(=O)[C@H](CC(C)C)NC(=O)[C@@H](N)CS)C(=O)NCC(=O)N[C@@H](CCC(=O)O)C(=O)N[C@@H](Cc1ccccc1)C(=O)N[C@@H](CCC(N)=O)C(=O)N[C@@H](CS)C(=O)N[C@H](C(=O)N[C@@H](CS)C(=O)N[C@@H](CC(=O)O)C(=O)O)[C@@H](C)CC [Peptide N102M479D, CLDQIGEFQCICD] (H-CLDQIGEFQCICD-OH; N-terminus and C-terminus assumed) = biggest improvement
CC[C@H](C)[C@H](NC(=O)[C@H](CCC(N)=O)NC(=O)[C@H](CC(=O)O)NC(=O)[C@H](CC(C)C)NC(=O)[C@@H](N)CS)C(=O)NCC(=O)N[C@@H](CCC(=O)O)C(=O)N[C@@H](Cc1ccccc1)C(=O)N[C@@H](CCC(N)=O)C(=O)N[C@@H](CS)C(=O)N[C@H](C(=O)N[C@@H](CS)C(=O)N[C@@H](CCC(=O)O)C(=O)O)[C@@H](C)CC [Peptide N102M479E, CLDQIGEFQCICE] (H-CLDQIGEFQCICE-OH; N-terminus and C-terminus assumed) = biggest improvement
